test system: myrcene A-neuron OSN class; test: net action potential response of A-neuron (blank-subtracted) (spikes/s (Hz)); higher = stronger excitation; details: 10 µg on filter paper; neuron: A neuron (large spike amplitude)
MEASURED_ENDPOINT: net action potential response
When you answer, write just the number.

A selection of reference data follows.
• CCC(C)CO (racemic) [(±)-2-Methyl-1-butanol] = 4
• CC1=C[C@@H](O)[C@H]2C[C@@H]1C2(C)C [(-)-trans-Verbenol] = 6
• CC1=CCC2CC1C2(C)C (stereo not drawn) [(+)-α-Pinene] = 4

Identify the measured net action potential response of CC(C)[C@@]12CC[C@@](C)(O)[C@@H]1C2 [(+)-trans-4-Thujanol] for myrcene A-neuron OSN class.
-4

Param readout = net action potential response; param system = myrcene A-neuron OSN class; param query = COc1ccccc1 ; response: value
-2

Give net action potential response (myrcene A-neuron OSN class) of the following molecule: CCC/C=C/C=O [(E)-hex-2-enal]
2

src = the supplement of paper PMC11577813
